tested on: passive cutaneous anaphylaxis (PCA) reaction; assay: passive cutaneous anaphylaxis (PCA) test, i.v. or oral administration; assay type: in vivo, male Charles River Wistar rats; conditions: Rattus norvegicus, iv; I.V., 3 mg/kg; read-out: degree (%) of protection, PCA test
Parameter inhibition in vivo at 3 mg/kg: see the listing below.
Note: unit % is implicit; provide only the numeric part.

COc1cc2cc3c(=O)[nH]c(C)nc3nc2cc1OC [CH3/H/H/OCH3/OCH3/H]; 77

Exam item: // query inhibition in vivo at 3 mg/kg value for entry CCOC(=O)c1nc2nc3cc(O)c(OC)cc3cc2c(=O)[nH]1 [COOC2 H5/H/H/OCH3/OH/H]
Marked response: 100

Exam item: // query inhibition in vivo at 3 mg/kg value for entry CCc1nc2nc3cc(OC)c(OC)cc3cc2c(=O)[nH]1 [C2 H5/H/H/OCH3/OCH3/H]
Marked response: 56

====

tested on: passive cutaneous anaphylaxis (PCA) reaction; assay: passive cutaneous anaphylaxis (PCA) test, i.v. or oral administration; assay type: in vivo, male Charles River Wistar rats; conditions: Rattus norvegicus, iv; I.V., 1 mg/kg; read-out: degree (%) of protection, PCA test
Parameter inhibition in vivo at 1 mg/kg: see the listing below.
Note: unit % is implicit; provide only the numeric part.

Below are worked cases with known answers.
CCOC(=O)c1nc2nc3ccc(Cl)cc3cc2c(=O)[nH]1; 70
O=C(O)c1cc(=O)c2c(OCC(O)COc3cccc4oc(C(=O)O)cc(=O)c34)cccc2o1 [Disodium chromoglycate, reference compound]; 56
CCOC(=O)c1nc2nc3ccc(F)cc3cc2c(=O)[nH]1; 90
CCOC(=O)c1nc2nc3cc4c(cc3cc2c(=O)[nH]1)OCCO4; 64
CCOC(=O)c1nc2nc3cc4c(cc3cc2c(=O)[nH]1)OCO4; 70

Next, consider the following compound.
Exam item: // query inhibition in vivo at 1 mg/kg value for entry CCOC(=O)c1nc2nc3cccc(Cl)c3cc2c(=O)[nH]1
Marked response: 96

====

Parameter inhibition in vivo at 0.01 mg/kg: see the listing below.
Test system: passive cutaneous anaphylaxis (PCA) reaction
Assay: passive cutaneous anaphylaxis (PCA) test, i.v. or oral administration
Type: in vivo, male Charles River Wistar rats
Settings: Rattus norvegicus, iv; I.V., 0.01 mg/kg; read-out: degree (%) of protection, PCA test
Experimental: In the PCA test, normal animals are injected intradermally (i.d.) with antibodies contained in serum obtained from actively sensitized animals. The animals are then challenged intravenously with antigen mixed with a dye such as Evans' Blue. […] The test animals are then asphyxiated and the intensity of the reaction determined by measuring the diameter and intensity of the blue coloration on the inner surface of the animals skin. […]
Note: unit % is implicit; provide only the numeric part.

CCOC(=O)c1nc2nc3cc(OC)c(OC)cc3cc2c(=O)[nH]1; 70
COc1cc2cc3c(=O)[nH]c(C(=O)O)nc3nc2cc1OC; 71

Next, consider the following molecule.
Exam item: Form entry - test system: passive cutaneous anaphylaxis (PCA) reaction; read-out: inhibition in vivo at 0.01 mg/kg; molecule: CCOC(=O)c1nc2nc3cc(OC)c(OCC)cc3cc2c(=O)[nH]1
Marked response: 72
